# target_system: hCB2R (Homo sapiens, UniProt P34972)
# Sequence (P34972 whole entry): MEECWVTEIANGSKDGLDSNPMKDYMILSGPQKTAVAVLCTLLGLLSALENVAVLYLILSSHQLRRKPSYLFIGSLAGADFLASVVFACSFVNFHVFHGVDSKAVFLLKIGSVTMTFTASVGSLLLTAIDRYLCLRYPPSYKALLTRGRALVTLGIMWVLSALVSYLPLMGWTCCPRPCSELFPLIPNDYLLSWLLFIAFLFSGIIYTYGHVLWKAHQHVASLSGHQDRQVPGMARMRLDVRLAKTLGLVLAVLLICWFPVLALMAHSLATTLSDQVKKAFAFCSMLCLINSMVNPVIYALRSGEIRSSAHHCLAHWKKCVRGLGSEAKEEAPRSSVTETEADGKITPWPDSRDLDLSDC
# Parameters: expressed in transfected cells; host or cells: Flp-In-293 (Invitrogen #R750-07), pcDNA5/FRT
# experimental_context: hCB2R
For each record, write down the corresponding β-AR-GTPγS bias factor (BF).

Exercise: Form field: β-AR-GTPγS bias factor (BF) recorded for CN1CCCC[C@H]1Cn1cc(C(=O)c2cc([N+](=O)[O-])ccc2I)c2ccccc21 [(S)-AM1241] with hCB2R (Homo sapiens, UniProt P34972) (enter value)
Key: 0.07

Exercise: Form field: β-AR-GTPγS bias factor (BF) recorded for CN1CCCCC1Cn1cc(C(=O)c2cc([N+](=O)[O-])ccc2I)c2ccccc21 (racemic) [(rac)-AM1241] with hCB2R (Homo sapiens, UniProt P34972) (enter value)
Key: 68.30

Exercise: Form field: β-AR-GTPγS bias factor (BF) recorded for CN1CCCC[C@@H]1Cn1cc(C(=O)c2cc([N+](=O)[O-])ccc2I)c2ccccc21 [(R)-AM1241] with hCB2R (Homo sapiens, UniProt P34972) (enter value)
Key: 0.49
